The measured values listed here are drawn from ChEMBL document CHEMBL2218924.

Reported residual activity values for a set of compounds
target: Aurora kinase B (Homo sapiens) (UniProt Q96GD4); conditions: at 1 µM
Sequence (Q96GD4 whole entry): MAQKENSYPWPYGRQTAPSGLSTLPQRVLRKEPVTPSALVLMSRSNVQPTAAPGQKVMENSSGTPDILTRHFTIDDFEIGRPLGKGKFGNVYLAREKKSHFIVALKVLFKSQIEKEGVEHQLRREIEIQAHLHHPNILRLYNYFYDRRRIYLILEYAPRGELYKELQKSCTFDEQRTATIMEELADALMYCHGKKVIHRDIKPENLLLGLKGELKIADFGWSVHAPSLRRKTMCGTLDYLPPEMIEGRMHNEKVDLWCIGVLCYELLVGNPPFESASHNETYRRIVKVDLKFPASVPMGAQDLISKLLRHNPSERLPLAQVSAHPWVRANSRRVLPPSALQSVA
Numeric answer only, unit % assumed.

// solved cases for residual activity follow
CC(C)(C)c1cc(C=C(C#N)C#N)cc(Br)c1O; 108
CC(C)[C@H](CO)Nc1nc(Nc2cccc(Cl)c2)c2ncn(C(C)C)c2n1; 72
COC(=O)[C@@]1(O)C[C@H]2O[C@]1(C)n1c3ccccc3c3c4c(c5c6ccccc6n2c5c31)C(=O)NC4; 0
N/C(=N\[N+](=O)[O-])N/N=C\c1ccc(-c2cccc([N+](=O)[O-])c2)o1; 80
O=C1Nc2ccc3ncsc3c2/C1=C/c1c[nH]cn1; 2
CCn1cnc2c(Nc3cccc(Cl)c3)nc(N[C@@H]3CCCC[C@@H]3N)nc21; 21

Requested read-out: residual activity. Entry: COc1ccc2c(c1)/C(=C/c1cnc[nH]1)C(=O)N2
21

Requested read-out: residual activity. Entry: COc1cc2ncnc(Nc3ccc(OCc4ccccc4)cc3)c2cc1OC
6

Requested read-out: residual activity. Entry: O=C1NC(=O)c2c1c1c3ccccc3n3c1c1c2c2ccccc2n1C1CCC3O1
2
